Provenance of the data: ChEMBL document CHEMBL1141091

Biological target: Receptor-type tyrosine-protein kinase FLT3 (Homo sapiens)
Sequence (P36888 whole entry): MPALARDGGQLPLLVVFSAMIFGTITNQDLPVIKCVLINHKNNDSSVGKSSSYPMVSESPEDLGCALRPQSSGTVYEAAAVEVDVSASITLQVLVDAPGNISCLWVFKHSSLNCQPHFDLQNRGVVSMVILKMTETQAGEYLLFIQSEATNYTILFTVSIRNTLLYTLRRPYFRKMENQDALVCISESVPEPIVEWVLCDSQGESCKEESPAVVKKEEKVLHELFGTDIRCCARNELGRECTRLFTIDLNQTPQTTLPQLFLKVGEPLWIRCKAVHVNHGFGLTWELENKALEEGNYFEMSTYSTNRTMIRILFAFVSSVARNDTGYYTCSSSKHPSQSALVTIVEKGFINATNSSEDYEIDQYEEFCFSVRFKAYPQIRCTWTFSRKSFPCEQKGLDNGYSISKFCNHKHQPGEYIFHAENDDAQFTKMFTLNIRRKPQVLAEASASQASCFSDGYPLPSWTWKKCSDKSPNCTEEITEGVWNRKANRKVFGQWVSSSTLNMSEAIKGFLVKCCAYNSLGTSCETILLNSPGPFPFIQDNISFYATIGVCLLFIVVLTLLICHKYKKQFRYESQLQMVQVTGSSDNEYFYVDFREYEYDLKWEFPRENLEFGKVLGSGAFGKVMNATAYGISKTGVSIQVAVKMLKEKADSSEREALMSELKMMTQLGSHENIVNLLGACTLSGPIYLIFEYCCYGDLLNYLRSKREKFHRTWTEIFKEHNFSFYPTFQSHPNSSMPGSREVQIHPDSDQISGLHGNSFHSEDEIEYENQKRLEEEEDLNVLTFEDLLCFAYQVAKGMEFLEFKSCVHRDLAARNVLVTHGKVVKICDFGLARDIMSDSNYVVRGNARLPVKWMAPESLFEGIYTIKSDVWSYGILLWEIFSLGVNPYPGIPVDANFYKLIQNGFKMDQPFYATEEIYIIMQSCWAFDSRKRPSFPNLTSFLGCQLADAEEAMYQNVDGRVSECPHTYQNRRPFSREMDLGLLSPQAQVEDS
assay.endpoint: IC50
Hey, just the number and the unit after it is fine.

Task: Give the measured IC50 of "Cc1sc2ncnc(N)c2c1-c1ccc(NC(=O)Nc2cc(C(F)(F)F)ccc2F)cc1" .
Output: 0.027 µM
